# TEST PROTOCOL: Half life in dog at 5 mg/kg
# Format: ADME, organism-based, Canis lupus familiaris
# Set-up: dose 5 mg/kg
# APPLIED CONDITIONS: in vivo
ASSAY READOUT: half-life

[[record]]
smiles_notation = "O=C(N[C@@H]1CCCc2c1[nH]c1ccc(Cl)cc21)c1ccccn1"
result = "9.5 h"


====

The following molecules are shown together with reported CC50 values.
# TEST PROTOCOL: Cytotoxicity against HFF cells
# Format: cell-based
# APPLIED CONDITIONS: human
ASSAY READOUT: CC50

[[record]]
molecule = "O=C(NC1CCCc2c1[nH]c1ccc(Br)cc21)OCc1ccccc1 (stereo not given)"
result = "> 20 µM"

[[record]]
molecule = "O=C(NC1CCCc2c1[nH]c1ccc(Br)cc21)c1ccc(F)cc1 (racemic)"
result = "47 µM"

[[record]]
molecule = "O=C(NC1CCCc2c1[nH]c1ccc(Br)cc21)c1ccccc1 (stereo not given)"
result = "> 20 µM"

[[record]]
molecule = "Cc1ccccc1C(=O)NC1CCCc2c1[nH]c1ccc(Br)cc21 (stereo not given)"
result = "40 µM"

[[record]]
molecule = "O=C(NC1CCCc2c1[nH]c1ccc(Br)cc21)c1ccccc1F (racemic)"
result = "49 µM"


Data provenance: ChEMBL document CHEMBL1152400
